tested on: P388; assay: Antitumor activity against mouse P388 cells allografted in mouse assessed as increase of median life span at 25 mg/kg, ip on day 1, 5 and 9 measured up to 60 days relative to control; type: functional; settings: route intraperitoneal
Each item that follows carries a reported ILS at 25 mg/kg.
measured-attribute: ILS at 25 mg/kg (%)

1. CNCCNc1ccc(NCCNC)c2c1C(=O)c1ccccc1C2=O : 144
2. NCCNc1ccc(NCCN)c2c1C(=O)c1ccccc1C2=O : 144
3. NCCCNc1ccc(NCCCN)c2c1C(=O)c1c(O)ccc(O)c1C2=O : 83
4. O=C1c2ccccc2C(=O)c2c(NCCNCCO)ccc(NCCNCCO)c21 [AMETANTRONE] : 154

Value source: ChEMBL document CHEMBL3244336
